# Tested on: KM12 colon
# TEST_DETAILS: NCI-60 one-dose screen, 48 h (100 = growth as untreated, 0 = no growth, -100 = all killed)
# CONDITION_INFO: 10 µM unless noted
# Procedure: Growth inhibition of the KM12 human tumor cell line is measured as a screen for anti-cancer activity. Cells are grown in 96 well plates and exposed to the test compound for 48 hours. Compounds are tested at a single concentration, which is 10^-5 M for most compounds. The reported endpoint is percent growth (GI% or GIPRCNT), where numbers from 0 - 100% represent growth inhibition, and numbers from -100% - 0 represent cell death. For example, a value of 40 represents 60% growth inhibition. […]
The panel holds about 83,000 compounds, 20% with a hit somewhere; the sample as a whole holds those more often.
just bin them by growth: category 1: < 20%; category 2: ≥ 20% and < 60%; category 3: ≥ 60%

The following compounds have reported results that may help.
Incoming: Lab log: `Cc1ccc(C(=O)Nc2cc(-n3ccnc3C)cc(C(F)(F)F)c2)cc1C#Cc1cnc2cccnn12` — assign growth category
Outgoing: category 1

Incoming: Lab log: `Clc1ccc(Nc2nnc(-c3c[nH]c4ccccc34)o2)cc1` — assign growth category
Outgoing: category 2

Incoming: Lab log: `O=C(N/N=C/c1ccsc1)c1[nH]c2ccc(Br)cc2c1-c1ccccc1` — assign growth category
Outgoing: category 1

Incoming: Lab log: `COC(=O)c1c(C(=O)OC)c2c3ccccc3c3ccccc3n2c1C(=O)C(C)(C)C` — assign growth category
Outgoing: category 3

Incoming: Lab log: `COc1ccc(N=Nc2c(N)nn3c(-c4ccc5c(c4)C=S=C5)ccnc23)cc1` — assign growth category
Outgoing: category 2

Incoming: Lab log: `O=C(NNC(=O)c1ccc(OCc2nc3ccc(Cl)cc3[nH]2)cc1)Nc1ccc(Cl)c(C(F)(F)F)c1` — assign growth category
Outgoing: category 2

Incoming: Lab log: `Cc1nn(-c2ccccc2)c2nc(C)n(CC(=O)N/N=C/c3ccccc3O)c(=O)c12` — assign growth category
Outgoing: category 2

Incoming: Lab log: `O=C(CSc1nnc(-c2ccc(-c3nc4ccc(Cl)cc4[nH]3)cc2)o1)Nc1ccc(Br)cc1` — assign growth category
Outgoing: category 1

More entries:
Incoming: Lab log: `COc1ccc(N=Nc2c(N)nn3c(-c4cc5cc(Br)ccc5oc4=O)ccnc23)cc1` — assign growth category
Outgoing: category 2

Incoming: Lab log: COc1cc(CNC(=O)[C@]23CCC(C)(C)CC2C2=CCC4[C@@]5(C)CCC(OC(C)=O)C(C)(C)C5CC[C@@]4(C)[C@]2(C)CC3)ccc1OCc1cn(-c2ccc(Cl)cc2Cl)nn1 (stereo partly drawn) — assign growth category
Outgoing: category 3

Incoming: Lab log: `Clc1ccc(-c2nc3ccc(-c4nnc(SCc5ccccc5)o4)cc3[nH]2)cc1` — assign growth category
Outgoing: category 2

Incoming: Lab log: `O=C(Nc1ccc(-c2ccc3c(c2)NC(=O)/C3=C\c2ccc[nH]2)cc1)Nc1cccc(Cl)c1` — assign growth category
Outgoing: category 1

---

# System: HT29 colon
# TEST_DETAILS: NCI-60 one-dose screen, 48 h (100 = growth as untreated, 0 = no growth, -100 = all killed)
# CONDITION_INFO: 10 µM unless noted
About 83,000 compounds went through this panel and 20% of them were active in at least one assay; those are over-represented in the sample as a whole. The source made the active and inactive calls. How the source made its calls: active means growth percent below 10; inactive means the rest.
METRIC_NAME: growth

Take a look at these entries with their results.
Incoming: Form field: reported growth of `CN(C)c1nc(NCCNS(=O)(=O)c2ccc(C(=O)/C=C/c3ccc(C(F)(F)F)cc3)cc2)nc(N2CCOCC2)n1`
Outgoing: -73% (active)

Incoming: Form field: reported growth of `O=C(NNC(=S)NC(=O)c1ccccc1)c1ccc(OCc2nc3ccc(Cl)cc3[nH]2)cc1`
Outgoing: -6.38% (active)

Incoming: Form field: reported growth of `Cc1ccc(C(=O)Nc2cc(-c3ccncc3)cc(C(F)(F)F)c2)cc1C#Cc1cnc2cccnn12`
Outgoing: 26.9% (inactive)

Incoming: Form field: reported growth of CC1=C(C(=O)Nc2ccccc2)C(c2cccc(Cl)c2Cl)n2c(nc3ccccc32)N1 (stereo not drawn)
Outgoing: 22.1% (inactive)

Incoming: Form field: reported growth of `Nc1ccc(-c2ccc3ncnc(N4CCc5cc(F)c(Cl)cc54)c3c2)cn1`
Outgoing: 25.9% (inactive)

Give growth for all compounds that follow.
1. COC(=O)c1c(C(=O)OC)c2c3ccccc3c3ccccc3n2c1C(=O)C(F)(F)F
2. O=C1N/C(=N\c2nccs2)S/C1=C\c1ccc([N+](=O)[O-])cc1
3. O=C(Cc1c(-c2ccccc2[N+](=O)[O-])n(-c2ncnc3c2c(-c2ccccc2)c(-c2ccccc2)n3Cc2ccccc2)[nH]c1=O)c1ccc(Cl)c(Cl)c1
4. Cc1cc(C(NC(=O)C2CC3(CC(Nc4cccc5c4C(=O)N(C4CCC(=O)NC4=O)C5=O)C3)C2)c2ccc3c(c2)OC(F)(F)O3)c(O)c2ncccc12 (stereo not drawn)
5. Cn1cc(-c2cc3nc(-c4cn(C)c5ncccc45)cc(N)n3n2)c2cc(F)ccc21
6. Nc1nc(-c2ccccc2)c(N=Nc2ccc(Cl)cc2Cl)s1

Outgoing:
103% (inactive)
17.2% (inactive)
18.4% (inactive)
29.1% (inactive)
6.68% (active)
-60.4% (active)

Give growth for all compounds that follow.
1. O=C(c1ccc(Cl)cc1)C1[C@H](c2ccccc2Cl)[C@@H](c2ccccc2)NC12C(=O)Nc1ccc(Br)cc12 (stereo partly drawn)
2. COc1ccc(-c2nc3ccccc3n2CC(=O)N=Nc2c(O)[nH]c3ccc(OC)cc23)cc1
3. Cc1cc(C2(c3cc(C)c(OCC(O)CNc4c(C)n(C)n(-c5ccccc5)c4=O)cc3C(C)C)OC(=O)c3ccccc32)c(C(C)C)cc1OCC(O)CNc1c(C)n(C)n(-c2ccccc2)c1=O (stereo not drawn)
4. CCc1ccccc1-c1nc(CN[C@@H]2C[C@@H]3C[C@H]([C@H]2C)C3(C)C)c(C)o1
5. CN(C)CCCc1ccc(Nc2cnn(C)c(=O)c2Cl)cc1
6. Nc1nnc(-c2cncc(Br)c2)c(-c2c[nH]c3ccc(Cl)cc23)n1
7. O=C(CSc1nnc(-c2ccc(-c3nc4ccc(Cl)cc4[nH]3)cc2)o1)Nc1ccc(Br)cc1

Outgoing:
1. -82.3% (active)
2. 0.298% (active)
3. 13.4% (inactive)
4. -73.8% (active)
5. 105% (inactive)
6. 106% (inactive)
7. 28.6% (inactive)
